Assay: Cmax in Sprague-Dawley rat at 1 mg/kg, iv and po after 30 mins
Type: ADME, organism-based
Design: dose 1 mg/kg, route oral
Details: in vivo
QUANTITY MEASURED: Cmax (nM)
A number alone suffices; assume nM.

Request: Query: Cmax; subject: Fc1ccc(-c2nn3c(NC4CCCC4)nccc3c2-c2ccnc(NC3CCCC3)n2)cc1
Result: 300

---

Assay: Cytotoxicity against african green monkey Vero cells
Type: cell-based
Conditions: chlorocebus sabaeus
QUANTITY MEASURED: CC50

Some compounds with recorded CC50:
[
  {
    "GIVEN SMILES": "COc1ccc(-c2nn3c(NC4CCCC4)ccnc3c2-c2ccnc(NC3CCCC3)c2)cc1",
    "RESULT": "10 µM"
  },
  {
    "GIVEN SMILES": "CC(C)(C)Nc1nccc2c(-c3ccnc(NC4CCCC4)n3)c(-c3ccc(F)cc3)nn12",
    "RESULT": "> 40 µM"
  },
  {
    "GIVEN SMILES": "c1cc(-c2c(-c3ccc(OCC4CC4)cc3)nn3c(NC4CCCC4)nccc23)nc(NC2CCCC2)n1",
    "RESULT": "> 40 µM"
  },
  {
    "GIVEN SMILES": "c1ccc(-c2nn3c(NC4CCCC4)ccnc3c2-c2ccnc(NC3CCCC3)c2)cc1",
    "RESULT": "14 µM"
  }
]

Request: // lookup CC50 for COCCOc1ccc(-c2nn3c(NC4CCCC4)nccc3c2-c2ccnc(NC3CCCC3)n2)cc1
Result: > 40 µM
